target: Prothrombin (Homo sapiens)
measure: Ki (pM)

A: NCCC[C@H](NC(=O)[C@@H]1CCCN1C(=O)[C@@H]1CCCC[C@H]1c1ccccc1)B(O)O
B: CC1(C)[C@@H]2C[C@H]3OB([C@H](CCCCN)NC(=O)[C@@H]4CCCN4C(=O)[C@H]4CNC[C@@H]4c4cccc(C(F)(F)F)c4)O[C@@]3(C)[C@H]1C2
C: NCCCC[C@H](NC(=O)[C@@H]1CCCN1C(=O)CCc1ccccc1)B(O)O
Sort ascending by Ki: all records listed above. The reply should contain the labels ordered as requested.
A, C, B
